These data points were gathered from patent US20250197372A1.

Target: rat maltase (partially purified alpha-glucosidase from intestinal rat powder)
Experiment: Intestinal alpha-glucosidase assay, maltose substrate (Glucose GO Kit)
pIC50: −log10 of the molar value.
reported-property: pIC50

compound=O=[N+]([O-])c1cc(C2=COCCO2)ccc1NCc1cccc(CN2C[C@H](O)[C@@H](O)[C@H](O)[C@H]2CO)c1 reported_property=pIC50 result_comparator== value=8.40
compound=O=[N+]([O-])c1cc(-c2ncccn2)ccc1NCc1cccc(CN2C[C@H](O)[C@@H](O)[C@H](O)[C@H]2CO)c1 reported_property=pIC50 result_comparator== value=7.47
compound="O=[N+]([O-])c1cc(N2C3CCC2COC3)ccc1NCc1ccc(CN2CC(O)C(O)C(O)C2CO)cc1 (stereo in doubt)" reported_property=pIC50 result_comparator=> value=9.00

---

# Lookup of reported IC50 keyed by entry
Target: recombinant alpha-glucosidase II (murine full-length glucosidase II, alpha and beta subunits, Glu 2) (Mus musculus)
Construct: made in house; host or cells: HEK-293T cells transduced with BacMam viruses (75% alpha, 25% beta); protein harvested from culture supernatant
Sequence (O08795 15-521): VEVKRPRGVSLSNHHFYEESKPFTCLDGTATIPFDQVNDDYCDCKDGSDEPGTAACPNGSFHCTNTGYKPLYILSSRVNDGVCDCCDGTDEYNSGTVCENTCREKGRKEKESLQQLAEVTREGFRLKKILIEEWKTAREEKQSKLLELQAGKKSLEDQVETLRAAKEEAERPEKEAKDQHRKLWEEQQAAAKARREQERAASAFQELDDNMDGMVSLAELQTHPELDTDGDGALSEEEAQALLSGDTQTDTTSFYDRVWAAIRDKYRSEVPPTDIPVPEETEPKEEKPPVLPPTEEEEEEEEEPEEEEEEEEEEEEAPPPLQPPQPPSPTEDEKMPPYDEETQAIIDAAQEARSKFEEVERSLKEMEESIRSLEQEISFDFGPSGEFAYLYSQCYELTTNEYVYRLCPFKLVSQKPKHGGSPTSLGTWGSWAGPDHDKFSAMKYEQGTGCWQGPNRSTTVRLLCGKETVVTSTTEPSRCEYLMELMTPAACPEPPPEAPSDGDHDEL
Sequence (Q8BHN3 33-944): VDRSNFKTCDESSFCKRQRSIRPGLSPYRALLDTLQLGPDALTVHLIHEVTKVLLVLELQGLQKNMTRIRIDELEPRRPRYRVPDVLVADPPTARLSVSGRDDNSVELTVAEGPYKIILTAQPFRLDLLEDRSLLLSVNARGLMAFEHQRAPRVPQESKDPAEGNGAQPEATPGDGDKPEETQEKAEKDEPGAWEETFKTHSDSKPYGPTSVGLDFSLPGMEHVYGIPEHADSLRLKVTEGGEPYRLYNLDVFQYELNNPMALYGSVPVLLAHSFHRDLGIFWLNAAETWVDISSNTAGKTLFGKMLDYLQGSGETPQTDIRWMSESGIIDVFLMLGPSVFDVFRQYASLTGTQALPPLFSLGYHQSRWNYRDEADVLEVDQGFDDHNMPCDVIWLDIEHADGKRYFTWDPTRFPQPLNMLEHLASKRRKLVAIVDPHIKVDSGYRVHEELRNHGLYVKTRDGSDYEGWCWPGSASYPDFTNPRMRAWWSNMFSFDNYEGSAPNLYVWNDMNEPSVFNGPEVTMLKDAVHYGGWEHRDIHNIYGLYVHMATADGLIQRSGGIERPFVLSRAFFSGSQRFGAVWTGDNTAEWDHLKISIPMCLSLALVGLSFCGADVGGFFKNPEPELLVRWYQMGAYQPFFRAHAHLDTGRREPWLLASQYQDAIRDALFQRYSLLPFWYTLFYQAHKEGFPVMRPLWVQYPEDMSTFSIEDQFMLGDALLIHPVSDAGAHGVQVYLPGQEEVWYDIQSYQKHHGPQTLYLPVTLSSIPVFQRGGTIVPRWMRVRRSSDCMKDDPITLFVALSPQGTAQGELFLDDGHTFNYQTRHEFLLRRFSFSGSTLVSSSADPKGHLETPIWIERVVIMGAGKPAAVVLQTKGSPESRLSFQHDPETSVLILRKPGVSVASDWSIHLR
Experiment: Alpha-glucosidase II assay (4-methylumbelliferyl-alpha-D-pyranoside substrate, fluorescence)
Assay type: biochemical
Settings: Glucosidase 2; read-out: Glu2 IC50
reported-property: IC50

compound="[N-]=[N+]=Nc1ccc(NCCc2ccc(CCN3C[C@H](O)[C@@H](O)[C@H](O)[C@H]3CO)c3c2OCCO3)c([N+](=O)[O-])c1 [Compound 1173]" reported_property=IC50 value="666 nM"
compound="[N-]=[N+]=Nc1ccc(NCCc2cc(CCN3C[C@H](O)[C@@H](O)[C@H](O)[C@H]3CO)ccc2C2CCCCC2)c([N+](=O)[O-])c1 [Compound 1171]" reported_property=IC50 value="1010 nM"
compound="[N-]=[N+]=Nc1ccc(NCCc2ccc(CCN3C[C@@H](O)[C@H](O)[C@@H](O)[C@@H]3CO)c3ccccc23)c([N+](=O)[O-])c1 (stereo in doubt) [Compound 1178]" reported_property=IC50 value="9360 nM"
compound="Cc1cc(NCc2cnc(CN3C[C@H](O)[C@@H](O)[C@H](O)[C@H]3CO)cn2)cc(N2CCOCC2)c1 [Compound 1332]" reported_property=IC50 value="> 100000 nM"
compound="Cc1cc(-c2ccco2)ccc1NCc1ccc(CN2C[C@H](O)[C@@H](O)[C@H](O)[C@H]2CO)cc1 [Compound 1324]" reported_property=IC50 value="318 nM"
compound="N#Cc1cc(Br)cc(NCc2ccc(CN3C[C@H](O)[C@@H](O)[C@H](O)[C@H]3CO)cc2)c1 [Compound 1026]" reported_property=IC50 value="< 1 nM"
compound="Cc1nc2cc(-c3ncccn3)ccc2n1CCCCCCN1C[C@H](O)[C@@H](O)[C@H](O)[C@H]1CO [Compound 1339]" reported_property=IC50 value="194 nM"
compound="CS(=O)(=O)c1cc(NCc2ccc(CN3C[C@H](O)[C@@H](O)[C@H](O)[C@H]3CO)cc2)cc(-c2ncccn2)c1 [Compound 1059]" reported_property=IC50 value="58 nM"
compound="[N-]=[N+]=Nc1ccc(NCCc2cncc(CCN3C[C@H](O)[C@@H](O)[C@H](O)[C@H]3CO)n2)c([N+](=O)[O-])c1 [Compound 1187]" reported_property=IC50 value="3 nM"
compound="N#Cc1cc(NCc2ccc(CN3C[C@H](O)[C@@H](O)[C@H](O)[C@H]3CO)cc2)cc(N2CCOCC2)c1 [Compound 1060]" reported_property=IC50 value="262 nM"
compound="N#Cc1cc(NCc2ccc(CN3C[C@H](O)[C@@H](O)[C@H](O)[C@H]3CO)cc2)cc(-c2ncccn2)c1 [Compound 1065]" reported_property=IC50 value="6 nM"
compound="OC[C@@H]1[C@@H](O)[C@H](O)[C@@H](O)CN1CCCCCCNc1cc(Cl)cc(CN2CCCO2)c1 [Compound 1183]" reported_property=IC50 value="4 nM"
compound="Cc1cc(NCc2cccc(CN3C[C@H](O)[C@@H](O)[C@H](O)[C@H]3CO)n2)cc(N2CCOCC2)c1 [Compound 1336]" reported_property=IC50 value="> 100000 nM"
compound="COc1cc(Br)cc(NCCn2cc(CCN3C[C@H](O)[C@@H](O)[C@H](O)[C@H]3CO)c3ccccc32)c1 [Compound 1075]" reported_property=IC50 value="150 nM"
compound="O=[N+]([O-])c1cc(C2=COCCO2)ccc1NCc1cccc(CN2C[C@H](O)[C@@H](O)[C@H](O)[C@H]2CO)c1 [Compound 1087]" reported_property=IC50 value="8110 nM"
compound="OC[C@@H]1[C@@H](O)[C@H](O)[C@@H](O)CN1CCc1cn(CCNc2ccccc2)c2ccccc12 [Compound 1076]" reported_property=IC50 value="66 nM"
compound="OC[C@@H]1[C@@H](O)[C@H](O)[C@@H](O)CN1Cc1cccc(CNc2ccc(-c3ncccn3)cc2)c1 [Compound 1084]" reported_property=IC50 value="26600 nM"
compound="COCCCCCN(CCCNc1ccc(N=[N+]=[N-])cc1[N+](=O)[O-])CCCN1C[C@H](O)[C@@H](O)[C@H](O)[C@H]1CO [Compound 1221]" reported_property=IC50 value="220 nM"
compound="O=[N+]([O-])c1cc(-c2ccncc2)ccc1NCCc1ccc(CCN2C[C@H](O)[C@@H](O)[C@H](O)[C@H]2CO)cc1 [Compound 1110]" reported_property=IC50 value="< 1 nM"
compound="OC[C@@H]1[C@@H](O)[C@H](O)[C@@H](O)CN1CCCCCCNc1ccc(-c2ncco2)cc1Cl [Compound 1203]" reported_property=IC50 value="< 1 nM"
compound="Cc1cc(CN2CCOCC2)cc(NCCCCCCN2C[C@H](O)[C@@H](O)[C@H](O)[C@H]2CO)c1 [Compound 1003]" reported_property=IC50 value="2 nM"
compound="[N-]=[N+]=Nc1ccc(NCCNC(=O)NCCN2C[C@H](O)[C@@H](O)[C@H](O)[C@H]2CO)c([N+](=O)[O-])c1 [Compound 1276]" reported_property=IC50 value="39 nM"
compound="COc1cc(CC2CCOC2)cc(NCCCCCCN2C[C@H](O)[C@@H](O)[C@H](O)[C@H]2CO)c1 (some centres unmarked) [Compound 1141]" reported_property=IC50 value="139 nM"
compound="COc1cc(NCCc2ccc(CCN3C[C@H](O)[C@@H](O)[C@H](O)[C@H]3CO)cc2)cc(C2=COCCO2)c1 [Compound 1155]" reported_property=IC50 value="< 1 nM"
compound="CN(C)Cc1ccc(NCCCCCCN2C[C@H](O)[C@@H](O)[C@H](O)[C@H]2CO)c(C#N)c1 [Compound 1257]" reported_property=IC50 value="19 nM"
compound="[N-]=[N+]=Nc1ccc(NCCn2cc(CCN3C[C@H](O)[C@@H](O)[C@H](O)[C@H]3CO)nn2)c([N+](=O)[O-])c1 [Compound 1272]" reported_property=IC50 value="39 nM"

---

Target: recombinant human GBA (beta-glucocerebrosidase) (Homo sapiens, UniProt P04062)
Test: Beta-glucocerebrosidase (GBA, glucosylceramidase) assay (4-methylumbelliferyl-beta-D-pyranoside substrate, fluorescence)
Measured IC50, listed per entry.
reported-property: IC50

molecule="N#Cc1cc(Cl)cc(NCCc2ccc(CCN3C[C@H](O)[C@@H](O)[C@H](O)[C@H]3CO)cc2)c1 [Compound 1134]" value="2360 nM"
molecule="N#Cc1cc(NCc2ccc(CN3C[C@H](O)[C@@H](O)[C@H](O)[C@H]3CO)cc2)cc(N2CCOCC2)c1 [Compound 1060]" value="> 100000 nM"
molecule="O=[N+]([O-])c1cc(C2CC2)ccc1NCCCCCCN1C[C@H](O)[C@@H](O)[C@H](O)[C@H]1CO [Compound 1136]" value="37 nM"
molecule="[N-]=[N+]=Nc1ccc(NCCN2CCN(CCN3C[C@H](O)[C@@H](O)[C@H](O)[C@H]3CO)CC2)c([N+](=O)[O-])c1 [Compound 1273]" value="2980 nM"

---

Entries and their measured pIC50 follow.
Biological target: recombinant human GBA (beta-glucocerebrosidase) (Homo sapiens, UniProt P04062)
Sequence (P04062 40-536): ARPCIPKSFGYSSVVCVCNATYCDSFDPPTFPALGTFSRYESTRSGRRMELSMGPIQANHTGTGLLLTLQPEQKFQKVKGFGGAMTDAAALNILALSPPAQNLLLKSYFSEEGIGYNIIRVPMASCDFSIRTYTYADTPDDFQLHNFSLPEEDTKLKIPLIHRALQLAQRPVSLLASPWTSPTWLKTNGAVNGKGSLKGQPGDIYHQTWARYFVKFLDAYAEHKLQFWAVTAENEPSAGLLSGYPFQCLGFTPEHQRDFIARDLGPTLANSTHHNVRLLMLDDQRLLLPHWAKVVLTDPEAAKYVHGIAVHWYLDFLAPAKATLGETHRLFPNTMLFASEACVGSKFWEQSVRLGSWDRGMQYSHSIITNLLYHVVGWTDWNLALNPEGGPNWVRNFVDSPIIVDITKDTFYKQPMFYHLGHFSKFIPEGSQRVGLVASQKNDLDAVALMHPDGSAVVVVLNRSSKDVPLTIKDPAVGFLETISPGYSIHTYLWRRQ
Assay: Beta-glucocerebrosidase (GBA, glucosylceramidase) assay (4-methylumbelliferyl-beta-D-pyranoside substrate, fluorescence)
pIC50: −log10 of the molar value.
reported-property: pIC50

compound="CN(C)C(=O)c1cc(NCCCCCCN2C[C@H](O)[C@@H](O)[C@H](O)[C@H]2CO)cc(-c2ncccn2)c1 [Compound 1126]" reported_property=pIC50 result_comparator== value=5.15
compound="COc1cc(NCCCCCCN2C[C@H](O)[C@@H](O)[C@H](O)[C@H]2CO)cc(C2=CCCO2)c1 [Compound 1147]" reported_property=pIC50 result_comparator== value=5.70
compound="Cc1cc(NCc2cccc(CN3C[C@H](O)[C@@H](O)[C@H](O)[C@H]3CO)n2)cc(-c2ccc[nH]2)c1 [Compound 1335]" reported_property=pIC50 result_comparator== value=4.67
compound="COC(=O)c1cc(Cl)cc(NCCc2ccc(CCN3C[C@H](O)[C@@H](O)[C@H](O)[C@H]3CO)cc2)c1 [Compound 1116]" reported_property=pIC50 result_comparator== value=6.04
compound="Cc1cc(Br)cc(NCc2ccc(CN3C[C@H](O)[C@@H](O)[C@H](O)[C@H]3CO)cc2)c1 [Compound 1024]" reported_property=pIC50 result_comparator== value=4.68
compound="OC[C@@H]1[C@@H](O)[C@H](O)[C@@H](O)CN1CCCCCCNc1ccc(-c2ncccn2)cc1Cl [Compound 1228]" reported_property=pIC50 result_comparator== value=6.08
compound="O=[N+]([O-])c1cc(C2=COCCO2)ccc1NCc1ccc(CN2C[C@H](O)[C@@H](O)[C@H](O)[C@H]2CO)cc1 [Compound 1099]" reported_property=pIC50 result_comparator== value=4.43
compound="OC[C@@H]1[C@@H](O)[C@H](O)[C@@H](O)CN1CCCCCCNc1cc(Cl)cc(-c2ncccn2)c1 [Compound 1212]" reported_property=pIC50 result_comparator== value=6.41
compound="CS(=O)(=O)c1cc(Br)cc(NCc2ccc(CN3C[C@H](O)[C@@H](O)[C@H](O)[C@H]3CO)cc2)c1 [Compound 1025]" reported_property=pIC50 result_comparator== value=4.41
compound="COc1ccc(-c2ccc(CN3C[C@H](O)[C@@H](O)[C@H](O)[C@H]3CO)cc2)cc1 [Compound 1306]" reported_property=pIC50 result_comparator=< value=4.00
compound="[N-]=[N+]=Nc1ccc(NCCC(O)C(O)CCN2C[C@H](O)[C@@H](O)[C@H](O)[C@H]2CO)c([N+](=O)[O-])c1 (some centres unmarked) [Compound 1270]" reported_property=pIC50 result_comparator== value=7.09
compound="O=[N+]([O-])c1cc(-c2ccc[nH]2)ccc1NCc1cccc(CN2C[C@H](O)[C@@H](O)[C@H](O)[C@H]2CO)c1 [Compound 1088]" reported_property=pIC50 result_comparator== value=4.16
compound="COc1cc(NCCCCCCN2C[C@H](O)[C@@H](O)[C@H](O)[C@H]2CO)cc(-c2ccccc2)c1 [Compound 1150]" reported_property=pIC50 result_comparator== value=6.71
compound="[N-]=[N+]=Nc1ccc(N2CC(OCCN3C[C@H](O)[C@@H](O)[C@H](O)[C@H]3CO)C2)c([N+](=O)[O-])c1 [Compound 1252]" reported_property=pIC50 result_comparator== value=5.06
